assay: folding stability dG unfold from trypsin proteolysis; higher = more stable
MEASURED_QUANTITY: folding stability dG unfold (kcal/mol)

>>> test_result("SKKIKLSEEMKEAIKEAVKKAKPGEKVEITIKLKDGSIIKIEIYPDGTIKISVFDKNGKKIKEFEIKIKPSA [r9_132_TrROS_Hall]")
1.43
>>> test_result("SAGGTIKITIKAENLTEEEKEELAKKIADELKKKGYKVKKVEVTVEKEKEKTVTITLENGKKIEVKLSAGGS [r8_485_TrROS_Hall]")
1.49
>>> test_result("SAGGSMVVVVKLKDGKKIELSVEELKKLAEELGLEPEEEDKEERLERIAKALAEKLGLEVEKVEVLSAGGSA [r2_83_TrROS_Hall]")
4.09
>>> test_result("SAGGSAGGSANWKEIDGTLPWGLRVKVWVSPGNGQLMIEIKPVPPPPPPKISPEDADKANADSAGGSAGGSA [r18_236_TrROS]")
2.31
>>> test_result("SAGGTSPVTIPVTFDDLPPDAVDEAKARAEELAEELRAQGHEVLSVTIEIEPGRVTVTLTVTFPGGAPLSAG [r5_515_JUSTAS]")
1.93
>>> test_result("SAGGSAGGSAKPLTVDEILKNLDFPPNMEIEDIEVDQDENEGKPVISIEMYSPGQPYRPTIVSAGGSAGGSA [r18_354_TrROS]")
-0.151
>>> test_result("SAGMKPNETLPNAIIRIENSKGKVKEFTLPNVVSIEEIDEKNGIITLTLPNNKKITLKVPKNAKITIEGSAG [r5_762_TrMRF]")
3.04
